Data credit: patent US20230365662A1

OD450nm by entry:
# TEST_TARGET: HRgpA-6H (Porphyromonas gingivalis) (UniProt P28784)
# TEST_DESCRIPTION: ELISA, FASEBA Fab on coated HRgpA-6H; further: test concentration or dose not given here
Give the figure only, with no unit attached.

BINDER | EXPERIMENTAL_VALUE
KB001 mouse Fab VL S53D (Fab, V domains shown) VH: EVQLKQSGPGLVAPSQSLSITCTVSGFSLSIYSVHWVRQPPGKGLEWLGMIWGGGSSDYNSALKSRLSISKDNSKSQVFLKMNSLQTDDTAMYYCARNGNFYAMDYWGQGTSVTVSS VL: QIVLTQSPAIMSASLGERVTMTCTASSSVSSSFLHWYQQKPGSSPQLWIYSTDNLASGVPARFSGSGSGTSYSLTISSMEAEDAATYYCHQYHHSPYIYTFGGGTKLEIK | 0.775

Now consider a different binder.
Field OD450nm (entry KB001 mouse Fab VL S53A (Fab, V domains shown) VH: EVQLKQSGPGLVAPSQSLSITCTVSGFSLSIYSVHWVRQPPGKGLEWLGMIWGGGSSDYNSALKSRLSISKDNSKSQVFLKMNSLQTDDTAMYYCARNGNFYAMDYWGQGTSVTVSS VL: QIVLTQSPAIMSASLGERVTMTCTASSSVSSSFLHWYQQKPGSSPQLWIYSTANLASGVPARFSGSGSGTSYSLTISSMEAEDAATYYCHQYHHSPYIYTFGGGTKLEIK ) reads 0.784
